Collected Kp at 1 h values appear next to each entry.
test-name: Repartition in tissues (brain/blood ratio) after oral administration, rats, titration by gaseous chromatography
Assay type: in vivo
stated-conditions: female rat ± 200 gr, oral 100 mg/kg, after 1 hour
experimental-readout: Kp at 1 h

# molecule, readout-value
measured = [
    ("[2H]c1ccc(C2(c3ccccc3)NC(=O)NC2=O)cc1 (stereo not drawn) [DPH-d1, 5-(paradeuterophenyl)-5-phenylhydantoin]", 2.1),
    ("[2H]c1c([2H])c([2H])c(C2(c3ccccc3)NC(=O)NC2=O)c([2H])c1[2H] (stereo not drawn) [DPH-d5, 5-phenyl-d5-5-phenylhydantoin]", 2.15),
    ("O=C1NC(=O)C(c2ccccc2)(c2ccccc2)N1 [DPH, 5,5-diphenylhydantoin, reference compound]", 0.9),
]

###

Catalogue of Kp at 2 h readings, one per entry.
test-name: Repartition in tissues (brain/blood ratio) after oral administration, mice, titration by gaseous chromatography
Format: in vivo
stated-conditions: mouse, 100 mg/kg, male mice 20-25gr, oral 100 mgr/kg, after 2 hours
experimental-readout: Kp at 2 h

# molecule, readout-value
rows = [
    ("O=C1NC(=O)C(c2ccccc2)(c2ccccc2)N1 [DPH, 5,5-diphenylhydantoin, reference compound]", 1.45),
    ("[2H]c1c([2H])c([2H])c(C2(c3ccccc3)NC(=O)NC2=O)c([2H])c1[2H] (centres unmarked)", 2.35),
]

###

test-name: Repartition in tissues (brain/blood ratio) after oral administration, rats, titration by gaseous chromatography
Type: in vivo
stated-conditions: female rat ± 200 gr, oral 100 mg/kg, after 2 hours
# Lookup of reported Kp at 2 h keyed by entry

# compound, Kp at 2 h
rows = [
    ("[2H]c1c([2H])c([2H])c(C2(c3ccccc3)NC(=O)NC2=O)c([2H])c1[2H] (stereo not drawn)", 4.49),
    ("[2H]c1ccc(C2(c3ccccc3)NC(=O)NC2=O)cc1 (stereo not drawn) [DPH-d1, 5-(paradeuterophenyl)-5-phenylhydantoin]", 15.5),
    ("O=C1NC(=O)C(c2ccccc2)(c2ccccc2)N1 [DPH, 5,5-diphenylhydantoin, reference compound]", 5.91),
]

###

test-name: Repartition in tissues (brain/blood ratio) after oral administration, mice, titration by gaseous chromatography
Format: in vivo
stated-conditions: mouse, 100 mg/kg, male mice 20-25gr, oral 100 mgr/kg, after 24 hours

# compound, Kp at 24 h
rows = [
    ("O=C1NC(=O)C(c2ccccc2)(c2ccccc2)N1 [DPH, 5,5-diphenylhydantoin, reference compound]", 2.09),
    ("[2H]c1c([2H])c([2H])c(C2(c3ccccc3)NC(=O)NC2=O)c([2H])c1[2H] (centres unmarked) [DPH-d5, 5-phenyl-d5-5-phenylhydantoin]", 2.97),
]
